Biological target: human CYP3A4 (Homo sapiens, UniProt P08684)
Sequence (P08684 whole entry): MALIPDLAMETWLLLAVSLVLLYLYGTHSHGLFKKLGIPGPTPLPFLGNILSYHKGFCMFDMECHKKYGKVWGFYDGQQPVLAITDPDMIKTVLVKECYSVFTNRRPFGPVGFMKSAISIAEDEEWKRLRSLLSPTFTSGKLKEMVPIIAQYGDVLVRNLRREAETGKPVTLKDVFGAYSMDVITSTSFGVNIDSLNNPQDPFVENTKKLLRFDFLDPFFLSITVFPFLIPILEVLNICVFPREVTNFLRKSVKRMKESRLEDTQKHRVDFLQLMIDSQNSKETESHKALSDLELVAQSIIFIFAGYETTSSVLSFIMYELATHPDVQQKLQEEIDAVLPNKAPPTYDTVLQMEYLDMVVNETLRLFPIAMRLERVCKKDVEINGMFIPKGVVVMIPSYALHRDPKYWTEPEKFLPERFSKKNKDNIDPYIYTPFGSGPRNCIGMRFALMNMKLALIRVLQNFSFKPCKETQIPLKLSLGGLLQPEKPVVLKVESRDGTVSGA
assay_endpoint: IC50 (µM)
Express the result in µM but write the number alone.

Q. Which IC50 reading was recorded for the molecule `CC[C@H](C)C(=O)O[C@H]1C[C@H](O)C=C2C=C[C@H](C)[C@H](CC[C@@H](O)C[C@@H](O)CC(=O)O)[C@H]21` ?
A. 14

Where these numbers come from: paper PMC3480797
